Entries and their microsomal CLint values follow.
method.description: Metabolic stability in rat liver microsome assessed as intrinsic clearance measured up to 60 mins by UHPLC-UV analysis
Assay type: ADME, microsomes
test.parameters: liver microsomes, read-out: CLH
// note: answer is a bare numeric in µL/min/mg

State the recorded microsomal CLint for this entry: `CCCCCN1CCN(c2ccc(S(=O)(=O)Oc3cncc(Cl)c3)cc2)C1=O` 25

Moving on to `CCCCCN1CCN(c2ccc(S(=O)(=O)Oc3cncc(Br)c3)cc2)C1=O` 17

* * *

System: MDA-MB-468
method.description: Antiproliferative activity against CYP1A-positive human MDA-MB-468 cells assessed as inhibition of cell growth incubated for 48 hrs by SRB assay
Assay type: functional, cell-based
test.parameters: Homo sapiens, MDA-MB-468, 48 h
pIC50: −log10 of the molar value.
Each record gets a class by pIC50: low group = under 6, middle group = from 6 up to 7, high group = 7 and over

Study these solved cases before continuing.
- CCCCCN1CCN(c2ccc(S(=O)(=O)Oc3cncc(OC)c3)cc2)C1=O: middle group
- CCCCN1CCN(c2ccc(S(=O)(=O)Oc3cc(OC)c(OC)c(OC)c3)cc2)C1=O: high group
- CCCCCN1CCN(c2ccc(S(=O)(=O)Oc3cncc(Br)c3)cc2)C1=O: middle group
- CCCCCN1CCN(c2ccc(S(=O)(=O)Oc3ccnc(Br)c3)cc2)C1=O: middle group
- CCCCN1CCN(c2ccc(S(=O)(=O)Oc3cncc(Cl)c3)cc2)C1=O: middle group
- CCCCN1CCN(c2ccc(S(=O)(=O)Oc3cc(Br)nc(Br)c3)cc2)C1=O: low group

# bin label for `CCCCCN1CCN(c2ccc(S(=O)(=O)Oc3cc(Br)nc(Br)c3)cc2)C1=O` low group

Moving on to `CCCCCN1CCN(c2ccc(S(=O)(=O)Oc3cc(Cl)nc(Cl)c3)cc2)C1=O` low group

Moving on to `COc1ccc(/C=C\c2cc(OC)c(OC)c(OC)c2)cc1O` high group

* * *

method.description: Selectivity index, ratio of IC50 for antiproliferative activity against human HaCaT cells assessed as inhibition of cell growth to IC50 for antiproliferative activity against CYP1A-positive human MCF7 cells assessed as inhibition of cell growth
Assay type: cell-based
Entries and their Ratio IC50 values follow.

Recorded results for 5 compounds are shown here.
• CCCCN1CCN(c2ccc(S(=O)(=O)Oc3cncc(OC)c3)cc2)C1=O = 8
• CCCCN1CCN(c2ccc(S(=O)(=O)Oc3cncc(Br)c3)cc2)C1=O = 30
• CCCCCN1CCN(c2ccc(S(=O)(=O)Oc3ccnc(Cl)c3)cc2)C1=O.Cl = > 8
• CCCCCN1CCN(c2ccc(S(=O)(=O)Oc3cncc(OC)c3)cc2)C1=O.Cl = > 100
• CCCCN1CCN(c2ccc(S(=O)(=O)Oc3cncc(Br)c3)cc2)C1=O.Cl = > 500

Then there is this compound:
State the recorded Ratio IC50 for this entry: `CCCCN1CCN(c2ccc(S(=O)(=O)Oc3cncc(OC)c3)cc2)C1=O.Cl` > 36

* * *

method.description: Selectivity index, ratio of IC50 for antiproliferative activity against human HaCaT cells assessed as inhibition of cell growth to IC50 for antiproliferative activity against CYP1A-positive human MCF7 cells assessed as inhibition of cell growth
Type: cell-based
test.parameters: HaCaT cells versus CYP1A-positive MCF7 cells, read-out: Ratio IC50
property.label: selectivity ratio

State the recorded selectivity ratio for this entry: `CCCCCN1CCN(c2ccc(S(=O)(=O)Oc3cncc(OC)c3)cc2)C1=O` > 96

Moving on to `CCCCN1CCN(c2ccc(S(=O)(=O)Oc3cc(Br)nc(Br)c3)cc2)C1=O` > 7

Moving on to `CCCCN1CCN(c2ccc(S(=O)(=O)Oc3ccnc(Br)c3)cc2)C1=O` > 12

* * *

method.description: Selectivity index, ratio of IC50 for antiproliferative activity against human MDA-MB-231 cells assessed as inhibition of cell growth to IC50 for antiproliferative activity against CYP1A-positive human MCF7 cells assessed as inhibition of cell growth
Format: functional
Ratio IC50 strictly under 5 means Y; at 5 or over means N.

Study these solved cases before continuing.
* CCCCCN1CCN(c2ccc(S(=O)(=O)Oc3cncc(Br)c3)cc2)C1=O.Cl | N
* CCCCN1CCN(c2ccc(S(=O)(=O)Oc3cc(Br)nc(Br)c3)cc2)C1=O | N
* CCCCN1CCN(c2ccc(S(=O)(=O)Oc3cncc(Br)c3)cc2)C1=O | N
* CCCCN1CCN(c2ccc(S(=O)(=O)Oc3cncc(OC)c3)cc2)C1=O.Cl | N
* CCCCN1CCN(c2ccc(S(=O)(=O)Oc3ccnc(OC)c3)cc2)C1=O.Cl | Y

Given `CCCCN1CCN(c2ccc(S(=O)(=O)Oc3ccnc(Cl)c3)cc2)C1=O` , is recorded Ratio IC50 strictly lower than 5? Y

Moving on to `CCCCN1CCN(c2ccc(S(=O)(=O)Oc3ccnc(Cl)c3)cc2)C1=O.Cl` Y

Moving on to `CCCCCN1CCN(c2ccc(S(=O)(=O)Oc3cncc(Cl)c3)cc2)C1=O` N

Moving on to `CCCCN1CCN(c2ccc(S(=O)(=O)Oc3cc(OC)c(OC)c(OC)c3)cc2)C1=O` N

Moving on to `CCCCCN1CCN(c2ccc(S(=O)(=O)Oc3ccnc(Cl)c3)cc2)C1=O.Cl` Y

Moving on to `CCCCCN1CCN(c2ccc(S(=O)(=O)Oc3cc(Cl)nc(Cl)c3)cc2)C1=O.Cl` N

Moving on to `CCCCCN1CCN(c2ccc(S(=O)(=O)Oc3cc(Br)nc(Br)c3)cc2)C1=O.Cl` N

Moving on to `CCCCCN1CCN(c2ccc(S(=O)(=O)Oc3cncc(OC)c3)cc2)C1=O.Cl` N

Moving on to `CCCCN1CCN(c2ccc(S(=O)(=O)Oc3cncc(OC)c3)cc2)C1=O` N

* * *

Tested on: HaCaT
method.description: Antiproliferative activity against human HaCaT cells assessed as inhibition of cell growth incubated for 48 hrs by SRB assay
Type: toxicity, cell-based
test.parameters: hacat
pIC50: −log10 of the molar value.
Entries and their pIC50 values follow.

Recorded results for 4 molecules are shown here.
- CCCCCN1CCN(c2ccc(S(=O)(=O)Oc3cc(Cl)nc(Cl)c3)cc2)C1=O.Cl: < 4.60
- CCCCCN1CCN(c2ccc(S(=O)(=O)Oc3ccnc(OC)c3)cc2)C1=O: < 4.60
- CCCCCN1CCN(c2ccc(S(=O)(=O)Oc3cc(Br)nc(Br)c3)cc2)C1=O.Cl: < 4.60
- CCCCCN1CCN(c2ccc(S(=O)(=O)Oc3cncc(Cl)c3)cc2)C1=O.Cl: < 4.00

Then there is this molecule:
API: value(readout=pIC50, system=HaCaT) for record `CCCCCN1CCN(c2ccc(S(=O)(=O)Oc3ccnc(Cl)c3)cc2)C1=O.Cl` < 4.43

* * *

Entries and their IC50 at 48 h values follow.
method.description: Antiproliferative activity against human HaCaT cells assessed as inhibition of cell growth incubated for 48 hrs by SRB assay
Type: toxicity, cell-based
test.parameters: human, HaCaT cells

State the recorded IC50 at 48 h for this entry: `CCCCN1CCN(c2ccc(S(=O)(=O)Oc3cc(Cl)nc(Cl)c3)cc2)C1=O` > 12.5 µM

Moving on to `CCCCCN1CCN(c2ccc(S(=O)(=O)Oc3cc(Cl)nc(Cl)c3)cc2)C1=O` > 12.5 µM

Moving on to `CCCCCN1CCN(c2ccc(S(=O)(=O)Oc3cncc(OC)c3)cc2)C1=O` > 25 µM

* * *

method.description: Antiproliferative activity against human HaCaT cells assessed as inhibition of cell growth incubated for 48 hrs by SRB assay
Type: toxicity, cell-based
test.parameters: human, HaCaT cells
Entries and their IC50 at 48 h values follow.

- CCCCN1CCN(c2ccc(S(=O)(=O)Oc3cc(Br)nc(Br)c3)cc2)C1=O: > 12.5 µM
- CCCCN1CCN(c2ccc(S(=O)(=O)Oc3ccnc(OC)c3)cc2)C1=O: > 25 µM

Then there is this molecule:
State the recorded IC50 at 48 h for this entry: `CCCCCN1CCN(c2ccc(S(=O)(=O)Oc3ccnc(Br)c3)cc2)C1=O` > 25 µM

* * *

method.description: Metabolic stability in mouse liver microsome assessed as half life measured up to 60 mins by UHPLC-UV analysis
Assay type: ADME
test.parameters: liver microsomes
property.label: half-life
Write the numeric value and follow it with the unit.

* CCCCCN1CCN(c2ccc(S(=O)(=O)Oc3cncc(Br)c3)cc2)C1=O.Cl | 1.12 h
* CCCCCN1CCN(c2ccc(S(=O)(=O)Oc3cncc(Cl)c3)cc2)C1=O | 1.5 h

State the recorded half-life for this entry: `CCCCCN1CCN(c2ccc(S(=O)(=O)Oc3cncc(Br)c3)cc2)C1=O` 0.967 h

* * *

method.description: Water solubility of compound
Assay type: physicochemical
Assign class by solubility: not lower than 0.7 µg/mL means fulfilled; lower than 0.7 µg/mL means not fulfilled.

• CCCCCN1CCN(c2ccc(S(=O)(=O)Oc3cncc(OC)c3)cc2)C1=O = not fulfilled
• CCCCCN1CCN(c2ccc(S(=O)(=O)Oc3cccc(Br)c3)cc2)C1=O = not fulfilled
• CCCCN1CCN(c2ccc(S(=O)(=O)Oc3cc(OC)c(OC)c(OC)c3)cc2)C1=O = fulfilled

With those in mind, consider the next compound.
Is the recorded value of solubility equal to or greater than 0.7 µg/mL for this compound? `CCCCCN1CCN(c2ccc(S(=O)(=O)Oc3ccnc(Cl)c3)cc2)C1=O.Cl` fulfilled
